Reference source: PubChem BioAssay (NCI)

assay: NCI Yeast Anticancer Drug Screen. Data for the cln2 rad14 strain (AID 165);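 note: 0% = growth equal to vehicle treated cultures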; details: S. cerevisiae cln2 rad14 strain, at 5.0 µM (retest, dose inferred, filed as 0.5)
Compounds without any hit were thinned out: in the full panel of roughly 79,000, 15% have a hit. Activity calls are given as the source filed them. Cut-off read from the data, not from the text of the source: active = growth inhibition above about 70%; inactive = the rest.
# output must be one of y = active, n = inactive

Before answering, review these 8 worked examples.
- Cc1ccnc2sc3ccccc3c(=O)c12: n
- C[C@@]12C[C@@H](Br)[C@H](Br)C[C@]1(C)O2: n
- COc1ccc(C2CC(c3c(O)ccc4ccccc34)=NN2)cc1OC (configuration not stated): n
- CN(Cc1cc(Cl)cc(Cl)c1O)Cc1c(O)ccc2ccccc12: n
- CCCC(C)c1ccc(O)cc1 (configuration not stated): n
- C/C(=N\NC(=S)Nc1ccc([N+](=O)[O-])cc1)c1nc2ncccc2[nH]1: n
- O=C1C=CC(=O)c2cc(Sc3ccccc3)c(=O)ccc21: n
- c1ccc(-c2cc(N3CCCCC3)c(-c3ccccc3)o2)cc1: n

How did this test come out for C1Cc2c3c4c(c5c2C(C1)CCC5)CCCC4CCC3 ?
n

What call does the record list for CN(C)c1ccc(C(c2ccc(N(C)C)cc2)c2ccc3c(c2)OCO3)cc1 ?
y

Recorded call for CNC(=S)/N=c1/sc([N+](=O)[O-])c(C)n1C ?
n

Write down the call the test reported for this molecule. Item: COc1nc(NC2OCC(O)C(O)C2O)c(Cl)c(=O)n1C (configuration not stated)
n

====

assay: NCI Yeast Anticancer Drug Screen. Data for the sgs1 mgt1 strain (AID 161);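 note: 0% = growth of cultures given vehicle only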; settings: S. cerevisiae sgs1 mgt1 strain, at 50.0 µM (retest, dose inferred, filed as 5.0), stronger effect = higher value
Compounds without any hit were thinned out: in the full panel of roughly 79,000, 15% have a hit.
Please use 1 whenever growth inhibition is not below 60%, and -1 whenever it is.

Use these answered entries as a reference point.
• O=S(NCc1ccccc1)c1ccccc1 (stereo not drawn) = -1
• Cc1nc(C(N)=S)sc1C(=O)CC(=O)C(=O)Nc1nc2ccccc2[nH]1 = -1
• CS(=O)(=O)n1c(C(O)c2ccccc2)nc2ccccc21 (stereo not drawn) = -1

Does the compound CC(=O)CC(=O)OCc1ccccc1 have recorded growth inhibition that is 60% or more?
1

Check this compound for growth inhibition at or above 60%: O=C(O)C1CCc2ccc3ccccc3c2C1c1cccc2ccccc12 (stereo not drawn)
1

Decide: growth inhibition of CC1CN(CC2CCCCCCCCCCC2=O)CC(C)O1 (stereo not drawn) >= 60%?
-1

In plain terms: is recorded growth inhibition at least 60% for O=C1C(Cl)=CC(=NCl)C=C1Cl ?
1

Hi, just wondering whether CC1(C)NNC(=S)NN1 shows growth inhibition of 60% or higher.
-1

Confirm if growth inhibition reported for the compound O=C1C=CC(=O)c2ccc(=O)ccc21 is 60% or above.
1

Answer whether growth inhibition of O=C(Nc1ccc(Cl)cc1Cl)OC(Cn1cncn1)c1ccc(Cl)cc1Cl (stereo not drawn) is greater than or equal to 60%.
1

Threshold query (growth inhibition >= 60%) on Nc1cc(Cl)ccc1SSc1ccc(Cl)cc1N
1

Tell me whether growth inhibition is at least 60% here: COC(=O)C(=O)/C=C(/O)c1ccc(OC)cc1
-1

Determine whether measured growth inhibition meets or exceeds 60% for CCCNCC/C=C/[Si](C)(C)C
1

====

Reported growth inhibition values are given for each entry in this list.
Test: NCI Yeast Anticancer Drug Screen. Data for the rad50 strain (AID 155);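 note: 0% = growth of vehicle-only cultures of the same strain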
Conditions: S. cerevisiae rad50 strain growth inhibition; at 50.0 µM; stronger effect = higher value
Description: Growth inhibition of yeast strains with defined genetic alterations is measured as a screen for potential anti-cancer activity. Selected strains with alterations in DNA damage repair or cell cycle control were exposed to compounds and growth inhibition was measured relative to vehicle treated controls. The strain used in this assay is rad50
Compounds without any hit were thinned out: in the full panel of roughly 79,000, 15% have a hit.
The reply should be a number in %, with the unit left off.

Recorded results for 5 compounds are shown here.
• CCCNC(=O)C(=O)NNc1ccccc1 = 66.8
• O=C1CCS(=O)(=O)c2ccccc21 = 91.2
• Cc1ccc2sc(=S)sc2c1 = 59.5
• COc1cc2c(cc1OC)-c1nc(N)sc1CC2 = 86.8
• COc1cccc(NC(=S)NC2CC(C)CC(C)(C)C2)c1 (stereo not given) = 86.5

Returns the measured growth inhibition for the input compound. Input: BrCc1ccccc1C[P+](c1ccccc1)(c1ccccc1)c1ccccc1
89.5

growth inhibition lookup needed for COc1ccc2c(C#N)cc3c(c[n+](C)c4ccccc34)c2c1 , thanks.
92

Query (compound): O=CNC(CCCC(=O)O)Cc1cc2ccccc2c2ccccc12 (stereo not given) ; field requested: growth inhibition
94.5

Tell me the measured growth inhibition of O=C1C(=O)c2cc(Br)cc([N+](=O)[O-])c2-c2ccc(Br)cc21 , please.
95.5

For CCC(c1ccccc1)N1C(=O)c2ccccc2S1(=O)=O (stereo not given) , what is its reported growth inhibition?
33.4

Given the entry CC1(C)CC(N(C(=O)/C=C/c2ccc([N+](=O)[O-])o2)C2CCCCC2)CC(C)(C)N1 , report its measured growth inhibition.
5.6

Reported growth inhibition, compound C=C1C(=O)C23C(O)C1CC[C@H]2C12CCCC(C)(COC(C)=O)[C@H]1[C@H](O)[C@]3(O)OC2 (stereo not given in full) : ____
90.4

Consider the compound CCCCCCCCCCCCCCCC1=NCCN1C and give its measured growth inhibition.
99.1

Requested field: growth inhibition. Item: O=C(C[n+]1ccccc1)c1ccc2ccc3ccc(Cl)cc3c2c1
59.1

growth inhibition for O=C(O)C1CCc2ccc3ccccc3c2C1c1cccc2ccccc12 (stereo not given) ?
98.1

Recorded growth inhibition for CC[N+](CC)(CC)Cc1ccc(C[N+](CC)(CC)CC)cc1 , please?
16.9

====

Test: NCI Yeast Anticancer Drug Screen. Data for the bub3 strain (AID 167)
Settings: S. cerevisiae bub3 mutant strain, at 5.0 µM (retest, dose inferred, filed as 0.5)
Method: Growth inhibition of yeast strains with defined genetic alterations is measured as a screen for potential anti-cancer activity. Selected strains with alterations in DNA damage repair or cell cycle control were exposed to compounds and growth inhibition was measured relative to vehicle treated controls. The strain used in this assay is bub3
About 79,000 compounds went through this panel and 15% of them were active in at least one assay; those are over-represented in the sample as a whole. The source made the active and inactive calls. Rule as the data show it: active = growth inhibition above about 70%; inactive = the rest.
Use one of these outcomes when replying: active, inactive

• Cc1scnc1C(C#N)(c1ccccc1)c1ccccc1 = inactive
• CCNc1cc(N)[n+](CC)c2n[nH]c(/N=C/c3cc(Cl)cc(Cl)c3O)c12 = active
• C/C(O)=C(/C=N\C(=S)Nc1ccc(Cl)c(Cl)c1)C(=O)Nc1ccccc1C = inactive
• CCCCCCCCCCNCCSSCCNC(C)=O = active
• Nc1ccc(-c2ccc(N)cc2S(=O)(=O)O)c(S(=O)(=O)O)c1 = inactive

Just curious, what result did N#Cc1cn(-c2c3ccccc3nc3ccccc23)c(=O)[nH]c1=O get here?
inactive

Hello, I am checking results. What call was entered for CN1C(=O)c2cccc3c([N+](=O)[O-])ccc(c23)C1=O ?
inactive

Assay outcome for CN(Cc1ccccc1)CC(O)c1ccc(/C=C/c2ccc(Cl)cc2)cc1 (centres undefined) : what was it?
inactive

Each compound tested received a call. Report the one for Cc1cc(C=Nc2ccccc2)c(O)c2ncccc12 .
inactive

Please let me know the test result on file for NC(=S)N/N=C/c1cn(CCCl)c2ccccc12 .
inactive

Short answer needed: outcome of this test for CCCCCCCCCCCCCCCCNCCCCCCCC(=O)O ?
inactive

Status in this test for CC(O)C1CCCC[N+]1(C)C (centres undefined) ?
inactive

Per the records of this test, what outcome belongs to CCOC(=O)C1=C(c2ccccc2)c2ccccc2OC1C(=O)O (centres undefined) ?
inactive

Tell me the assay call for O=C(O)c1nnsc1-c1ccc(-c2snnc2C(=O)O)cc1 please.
inactive

# lookup: test call for CN(C)/C=C(\C(=O)c1ccccc1)n1nc(-c2ccccc2)cc1-c1ccccc1
inactive

Recorded test outcome, item COc1ccc(N=Nc2ccc3oc(=O)c(C(=O)Nc4ccc(OC)cc4)cc3c2)cc1
inactive

====

experiment: NCI Yeast Anticancer Drug Screen. Data for the mlh1 rad18 strain (AID 175); conditions: S. cerevisiae mlh1 rad18 strain growth inhibition; at 5.0 µM (retest, dose inferred, filed as 0.5); stronger effect = higher value
About 79,000 compounds went through this panel and 15% of them were active in at least one assay; those are over-represented in the sample as a whole.
Class t: growth inhibition at least 30%. Class f: growth inhibition below 30%.

Reference set (2 entries):
* S=C(S)NCCN1CCNCC1 | f
* O=C(CC1CCCC(CC(=O)c2ccccc2)N1CCc1ccccc1)c1ccccc1 (stereo unspecified) | t

Say whether Oc1c(Cl)cc(Cl)c(Cc2c(Cl)cc(Cl)c(O)c2Cl)c1Cl shows growth inhibition of 30% or more.
t

Is growth inhibition for CCOC(=O)c1nnc2cc(-c3ccccc3)nn2c1-c1ccccc1 at or above 30%?
t

Could you verify whether the entry O=C1N(Cc2ccccc2)CC1(c1ccccc1)C1CCCCC1O (stereo unspecified) shows growth inhibition of no less than 30%?
f

Hi team, for COCCOC1=C(Cl)C(=O)c2c(O)ccc(O)c2C1=O , is the recorded growth inhibition at or above 30%?
t
